Catalogue of log fold change Tl+ flux readings, one per entry.
- Tested on: F380Y/beta4
- assay: modulators of BK channel variants, profiling panel, selectivity assay, cell-based, U2OS BacMam, thallium flux, beta subunits (AID 1259406);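 further: initial slope of Thallos dye fluorescence rise after thallium is added; log ratio against the mean of 0.3% DMSO vehicle wells on the same plate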
- measurement_setup: at 30 µM
Form field (numeric): enter value without unit.

Below, 5 compounds whose answers are already recorded.
compound	test_system	experimental_result
N#CC(NCc1ccccc1Cl)=C(C#N)NCc1c(F)cccc1Cl	F380Y/beta4	-0.171
CCCCCN=C(N)NN=Cc1c[nH]c2ccc(OC)cc12	F380Y/beta4	0.841
CC(=O)Nc1ccc(OCC(=O)N2CCN(c3ncc(C(F)(F)F)cc3Cl)CC2)cc1	F380Y/beta4	0.125
O=C(CC1SC(=NC2CC3C=CC2C3)NC1=O)Nc1ccccc1Cl (stereo unspecified)	F380Y/beta4	-0.0131
CC(=CCC1=C(C)C(=O)c2ccccc2C1=O)CCCC(C)CCCC(C)CCCC(C)C (stereo unspecified)	F380Y/beta4	0.0448

Now look at this entry.
Exam item: Fill in log fold change Tl+ flux for record ONC=Nc1nonc1-c1cccnc1
Marked response: 0.000104
